Listing: percent inhibition of AR of selected substances
# System: AR mRNA
# Run description: Dose-dependent antisense inhibition of human AR in HuVEC cells (electroporation, qRT-PCR RTS3559, IC50)
# Assay type: cell-based
# Settings: 500.0 nM; HuVEC, ~16 h; Table 8
Oligonucleotides are written 5' to 3', each unit as a sugar letter and its base; * is a phosphorothioate linkage, no mark a phosphodiester; rarer units and linkages stand in square brackets, end groups in braces. Plain capitals give the bases only. e = 2'-O-(2-methoxyethyl) (MOE); k = constrained ethyl (cEt); [5mC] = 5-methylcytosine; d = 2'-deoxy (DNA)
Report only the number, with the unit % understood.

Example entries and their recorded answers appear below.
Find the measured percent inhibition of AR of 560131 (antisense kT*kT*kG*dA*dT*dT*dT*dA*dA*dT*dG*dG*kT*kT*kG*e[5mC]) [compound 560131] and report it. 89

Give the value of percent inhibition of AR reported for the following: 569228 (antisense eT*eT*kG*kA*kT*dT*dT*dA*dA*dT*dG*dG*kT*kT*kG*e[5mC]) [compound 569228] 88

Please report percent inhibition of AR for the following substance: 549457 (kT*kT*kG*dA*dT*dT*dT*dA*dA*dT*dG*dG*dT*kT*kG*k[5mC]) [compound 549457] 93

Proceeding to the next substance to report its percent inhibition of AR.
Output measured percent inhibition of AR for this item: 569213 (antisense kT*kG*kA*dT*dT*dT*dA*dA*dT*dG*dG*dT*kT*kG*k[5mC]*eA) [compound 569213] 94

* * *

Listed next: entries and their corresponding Heart weight.
# Settings: cynomolgus monkey, in vivo, sc, 40 mg/kg
Number only, in g; omit the unit.

Note down Heart weight recorded for ISIS 584163: antisense compound targeted to human AR (GAACATTATTAGGCTA; 3-10-3 (S)-cEt gapmer, further chemistry not given here) 8.4

For the substance TTGATTTAATGGTTGC [ISIS 560131] (MOE and (S)-cEt gapmer chemistry, further chemistry not given here) , report Heart weight. 9.8

Identify measured Heart weight corresponding to ISIS 584149: antisense compound targeted to human AR (GTCAATATCAAAGCAC; 3-10-3 (S)-cEt gapmer, further chemistry not given here) 9.3

For the substance ISIS 584468: antisense compound targeted to human AR (CATTGTACTATGCCAG; 3-10-3 (S)-cEt gapmer, further chemistry not given here) , give its measured Heart weight value. 8.3

Look up and report measured Heart weight for this entry: GATTTAATGGTTGCAA (cEt gapmer chemistry, further chemistry not given here) [ISIS 586124] 9.4

Answer with reported Heart weight of TGATTTAATGGTTGCA [ISIS 569213] (cEt/MOE gapmer chemistry, further chemistry not given here) 8.3

Answer with the recorded Heart weight of ISIS 584269: antisense compound targeted to human AR (CCTTATGGATGCTGCT; 3-10-3 (S)-cEt gapmer, further chemistry not given here) only. 8.7

Please give measured Heart weight of the following entry: TGATTTAATGGTTGCA [ISIS 569216] (cEt/MOE gapmer chemistry, further chemistry not given here) 9.3

* * *

# System: AR mRNA
# Run description: Antisense inhibition of human AR in HuVEC cells, single concentration (electroporation, qRT-PCR RTS3559)
# Format: cell-based
# Settings: Table 24, 1,000 nM oligonucleotide, electroporation, approximately 24 hours, relative to untreated control
Oligonucleotides are written 5' to 3', each unit as a sugar letter and its base; * is a phosphorothioate linkage, no mark a phosphodiester; rarer units and linkages stand in square brackets, end groups in braces. Plain capitals give the bases only. k = constrained ethyl (cEt); [5mC] = 5-methylcytosine; d = 2'-deoxy (DNA)
Property: % inhibition (%)
The reply should be a number in %, with the unit left off.

Some solved entries appear below for comparison.
Input 584166 (k[5mC]*kA*k[5mC]*dA*dT*d[5mC]*dA*dG*dA*dA*dG*dG*dA*kG*kT*kA; antisense) [compound 584166] , output reported % inhibition. 89

Input 584157 (kT*kT*kG*dA*dT*dG*dG*dA*dA*dT*dG*d[5mC]*dT*kG*kA*kT; antisense) [compound 584157] , output reported % inhibition. 69

Tell me its % inhibition given 584168 (k[5mC]*kT*kG*dA*dT*dT*dA*dG*d[5mC]*dT*dA*dT*dG*kA*k[5mC]*k[5mC]; antisense) [compound 584168] as the entry. 70

Further cases:
Complete the entry with % inhibition for 584158 (kG*kG*kT*dT*dA*dA*d[5mC]*dT*dT*dT*d[5mC]*dT*d[5mC]*kT*kG*kA; antisense) [compound 584158] 69

* * *

Documented TMPRSS2 mRNA levels (% baseline value) after treatment with R1881 across a set of substances
# Tested on: TMPRSS2 mRNA
# Run description: TMPRSS2 mRNA levels in LMR20 cells
# Type: cell-based, human
# Settings: LMR20 cells, R1881 10 nM 72 hrs, ASO 0.20 μM
Oligonucleotides are written 5' to 3', each unit as a sugar letter and its base; * is a phosphorothioate linkage, no mark a phosphodiester; rarer units and linkages stand in square brackets, end groups in braces. Plain capitals give the bases only. e = 2'-O-(2-methoxyethyl) (MOE); l = locked nucleic acid (LNA); k = constrained ethyl (cEt); [5mC] = 5-methylcytosine; d = 2'-deoxy (DNA)
Value expressed in % baseline value; do not type the unit.

Output TMPRSS2 mRNA levels (% baseline value) after treatment with R1881 of 554221 (ACCAAGTTTCTTCAGC; sugars from the 5' end l3 d10 l3, all phosphorothioate, methylation of C not given here) [compound 554221] 134

Return value of TMPRSS2 mRNA levels (% baseline value) after treatment with R1881 for input 549458 (kG*kT*kT*dG*dA*dT*dT*dT*dA*dA*dT*dG*dG*kT*kT*kG) [compound 549458] , no commentary. 119

Quickly give me recorded TMPRSS2 mRNA levels (% baseline value) after treatment with R1881 for 569236 (antisense eT*kG*kA*kT*dT*dT*dA*dA*dT*dG*dG*kT*kT*kG*e[5mC]*eA) [compound 569236] 131

Query substance follows.
Specify reported TMPRSS2 mRNA levels (% baseline value) after treatment with R1881 for the substance shown: 560131 (antisense kT*kT*kG*dA*dT*dT*dT*dA*dA*dT*dG*dG*kT*kT*kG*e[5mC]) [compound 560131] 117

* * *

# Test system: AR mRNA
# Run description: Antisense inhibition of human AR in HuVEC cells, single concentration (electroporation, qRT-PCR RTS3559)
# Assay type: cell-based
# Settings: 500 nM ASO, electroporation, ~24 h, Table 2
Oligonucleotides are written 5' to 3', each unit as a sugar letter and its base; * is a phosphorothioate linkage, no mark a phosphodiester; rarer units and linkages stand in square brackets, end groups in braces. Plain capitals give the bases only. k = constrained ethyl (cEt); [5mC] = 5-methylcytosine; d = 2'-deoxy (DNA)
Property: % inhibition (%)
Report only the number, with the unit % understood.

Below: 5 substances and their reported % inhibition.
Tell us which % inhibition value is on record for 549434 (k[5mC]*kT*kA*dA*dA*d[5mC]*dT*dT*d[5mC]*d[5mC]*d[5mC]*dG*dT*kG*kG*k[5mC]) [compound 549434] 96

Input 549414 (kG*kT*kT*d[5mC]*dA*dT*dT*d[5mC]*dG*dA*dA*dG*dT*kT*k[5mC]*kA) [compound 549414] , output reported % inhibition. 81

Query % inhibition for 549459 (kA*kT*kG*dG*dT*dT*dG*dA*dT*dT*dT*dA*dA*kT*kG*kG) [compound 549459] 96

Identify measured % inhibition corresponding to 549432 (kG*kA*kG*dG*dA*dT*d[5mC]*dA*dT*d[5mC]*dA*d[5mC]*dA*kG*kA*kT) [compound 549432] 90

Retrieve % inhibition measured for 549457 (kT*kT*kG*dA*dT*dT*dT*dA*dA*dT*dG*dG*dT*kT*kG*k[5mC]) [compound 549457] and print it. 98

New cases:
Please indicate % inhibition recorded for 549458 (kG*kT*kT*dG*dA*dT*dT*dT*dA*dA*dT*dG*dG*kT*kT*kG) [compound 549458] 95

* * *

# System: V7 splice variant of the AR mRNA
# Run description: AR V7 splice variant mRNA in CWR22-RV1 cells (RT-PCR SYBR Green)
# Assay type: cell-based, human
# Settings: RNAiMax, dose 5.0 nM, 6 days
Oligonucleotides are written 5' to 3', each unit as a sugar letter and its base; * is a phosphorothioate linkage, no mark a phosphodiester; rarer units and linkages stand in square brackets, end groups in braces. Plain capitals give the bases only. e = 2'-O-(2-methoxyethyl) (MOE); k = constrained ethyl (cEt); [5mC] = 5-methylcytosine; d = 2'-deoxy (DNA)
Property: Percent inhibition of AR splice variant, V7 (%)
Your answer is read as %, so omit the unit and give the number.

Example results:
Using V7 splice variant of the AR mRNA as the test system, report measured Percent inhibition of AR splice variant, V7 of CTAAACTTCCCGTGGC (k[5mC]*kT*kA*dA*dA*d[5mC]*dT*dT*d[5mC]*d[5mC]*d[5mC]*dG*dT*kG*kG*k[5mC]) [ISIS 549434, targets 3'-end of exon 8] . 20

Output reported Percent inhibition of AR splice variant, V7 of the sequence AAGTTGTAGTAGTCGC (kA*kA*kG*dT*dT*dG*dT*dA*dG*dT*dA*dG*dT*k[5mC]*kG*k[5mC]) [ISIS 549372, targets exon 1] on V7 splice variant of the AR mRNA. 35

Under V7 splice variant of the AR mRNA, report Percent inhibition of AR splice variant, V7 for ACCAAGTTTCTTCAGC (LNA gapmer, phosphorothioate backbone, further chemistry not given here) [ISIS 554221, 3-10-3 LNA gapmer, phosphorothioate backbone, targeted to exon 4 of AR; benchmark, reference compound] 1

Retrieve Percent inhibition of AR splice variant, V7 on V7 splice variant of the AR mRNA; query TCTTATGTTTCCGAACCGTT (sugars from the 5' end e5 d10 e5, backbone and methylation of C not given here) [ISIS 347526, reference compound] 0

Continue with the next sequence.
Tell me its Percent inhibition of AR splice variant, V7 on V7 splice variant of the AR mRNA: GTTGATTTAATGGTTG (all phosphorothioate, sugars by position not given here; further chemistry not fully specified) [ISIS 549458] 34
